- SYSTEM: T1, CAPRIN-1 protein expressed on the membrane surface of human cancer cells (human, UniProt Q14444 2-709)
- T1 sequence (looked up): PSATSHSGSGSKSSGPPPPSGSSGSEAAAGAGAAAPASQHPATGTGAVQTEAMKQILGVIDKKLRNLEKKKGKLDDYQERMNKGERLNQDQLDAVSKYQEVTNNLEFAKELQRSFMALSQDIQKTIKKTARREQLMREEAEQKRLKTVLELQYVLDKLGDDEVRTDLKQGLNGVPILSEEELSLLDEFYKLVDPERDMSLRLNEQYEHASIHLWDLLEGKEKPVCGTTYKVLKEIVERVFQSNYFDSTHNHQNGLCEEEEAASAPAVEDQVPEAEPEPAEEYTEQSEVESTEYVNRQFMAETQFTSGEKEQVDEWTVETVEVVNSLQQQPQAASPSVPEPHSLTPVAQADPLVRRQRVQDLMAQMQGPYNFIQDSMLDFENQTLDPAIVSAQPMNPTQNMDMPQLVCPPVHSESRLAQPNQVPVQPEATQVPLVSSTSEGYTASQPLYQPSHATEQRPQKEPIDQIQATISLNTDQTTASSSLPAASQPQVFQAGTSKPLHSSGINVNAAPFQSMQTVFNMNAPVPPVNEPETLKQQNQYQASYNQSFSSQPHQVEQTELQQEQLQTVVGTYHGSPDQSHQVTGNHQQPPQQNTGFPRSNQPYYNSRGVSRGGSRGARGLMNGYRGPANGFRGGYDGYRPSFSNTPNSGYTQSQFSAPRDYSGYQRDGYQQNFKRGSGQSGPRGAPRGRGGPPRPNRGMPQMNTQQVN
- ASSAY_NAME: cell-based or functional assay
REPORTED_METRIC: ADCC cytotoxic activity (51Cr release) on Panc10.5

BINDER: humanized antibody #3 (antibody, V domains shown) VH: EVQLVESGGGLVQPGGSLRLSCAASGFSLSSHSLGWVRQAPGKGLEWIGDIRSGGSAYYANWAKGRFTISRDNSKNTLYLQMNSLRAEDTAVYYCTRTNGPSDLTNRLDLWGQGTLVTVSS VL: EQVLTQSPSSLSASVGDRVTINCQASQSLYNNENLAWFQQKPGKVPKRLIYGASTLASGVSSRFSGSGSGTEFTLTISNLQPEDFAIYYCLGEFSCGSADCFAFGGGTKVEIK
RESULT: ≥ 30%
